Assay: Drug excretion in human urine assessed as retention time treated with [14C]bendamustine at 120 mg/m'2, iv after 2 hrs by 60 mins LC-LSC-MSn method
Format: ADME, organism-based
Please assign f whenever Retention_time is at or above 20 min, and t whenever it is below.

**Q:** Identify whether the compound Cn1c(C(O)CCC(=O)O)nc2ccc(N(CCO)CCO)cc21 (stereo unspecified) records Retention_time below 20 min.
**A:** t

**Q:** Determine if Cn1c(C(O)CCC(=O)O)nc2ccc(NCCCl)cc21 (stereo unspecified) shows Retention_time strictly lower than 20 min.
**A:** f

**Q:** Strictly below 20 min in Retention_time? Cn1c(C(O)CCC(=O)O)nc2ccc(N(CCO)CCSCC(N)C(=O)O)cc21 (stereo unspecified)
**A:** t

**Q:** Threshold test, Retention_time < 20 min: `CN1CC(=O)N=C1NCCN(CCCl)c1ccc2nc(CCCC(=O)O)n(C)c2c1`
**A:** f

**Q:** Does the reported Retention_time of `Cn1c(CCCC(=O)O)nc2ccc(N(CCO)CCO)cc21` stay below 20 min?
**A:** t

**Q:** Retention_time strictly < 20 min for this compound? `Cn1c(CCCC(=O)O)nc2ccc(N(CCO)CCS)cc21`
**A:** f

**Q:** Here's an entry: Cn1c(C(O)CCC(=O)O)nc2ccc(N(CCCl)CCCl)cc21 (stereo unspecified) . Is its Retention_time below 20 min?
**A:** f

**Q:** Is the reported Retention_time for Cn1c(CCCC(=O)O)nc2ccc(N(CCO)CCSCC(N)C(=O)O)cc21 (stereo unspecified) strictly below 20 min?
**A:** t

**Q:** hey, is Retention_time for Cn1c(C(O)CCC(=O)O)nc2ccc(N(CCO)CCCl)cc21 (stereo unspecified) lower than 20 min or not?
**A:** f

**Q:** Consider the compound `CN1CC(=O)N=C1NCCN(CCO)c1ccc2nc(CCCC(=O)O)n(C)c2c1` . Is its Retention_time strictly less than 20 min?
**A:** t

**Q:** Input `Cn1c(CCCC(=O)O)nc2ccc(N(CCCl)CCOP(=O)(O)O)cc21` ; condition: Retention_time strictly below 20 min. Does it hold?
**A:** f
